System: DMS-273
Assay: NCI tumour cell line growth inhibition, 48 h
The source made the active and inactive calls. Rule as the data show it: active = GI50 up to about 1.1 µM and inactive = higher.
Provide the recorded GI50 for the entries that follow.

Worked examples follow.
CN/N=C(/c1nc2ccc([N+](=O)[O-])cc2nc1O)C(O)c1ccc(C(O)/C(=N\NC)c2nc3ccc([N+](=O)[O-])cc3nc2O)cc1 (stereo not drawn)
31.4 µM (inactive)
Cn1c2cccc3nnc4cccc(c4c32)n1C
> 100 µM (inactive)

The record that follows has no GI50 shown yet.
Task: Look up and report GI50, with DMS-273 as system, for COc1ccc(C(N)=O)c(OC)c1OCc1ccccc1
Output: > 100 µM (inactive)

* * *

System: K562
Assay: NCI tumour cell line growth inhibition, 48 h
Calls of active or inactive are those of the source. Rule as the data show it: active = GI50 up to about 1.1 µM and inactive = higher.
Pick one: yes (1) (active), no (0) (inactive)

Worked examples follow.
O=C(O)c1cc2c(ncc3c(=O)n(-c4ccccc4)[nH]c32)s1
no (0)
CC(C)Cc1ccc(C(C)/C=C2\CCC(CN3CCOCC3)C2=O)cc1 (stereo unspecified)
no (0)
CSc1nc(Cl)c2c(n1)Sc1nc3ccccc3n1C2O (stereo unspecified)
no (0)
CN(C)c1ccccc1CN1CCCN(Cc2ccccc2N(C)C)C1c1ccncc1
no (0)
CCOC(=O)c1cnc2oc3ccc(O)cc3c2c1C
no (0)
O=C(C#CP(=O)(O)c1ccccc1)c1ccccc1
no (0)
C=C1C(=O)C2(C)OC2(C)C1C(=O)O (stereo unspecified)
no (0)
CCOc1cc(C=O)c2c(ccc3ccc(OC)c(OC)c32)c1OC
no (0)
CCc1ccccc1NC(=O)C1=C(C)NC(C)=C(C(=O)Nc2ccccc2CC)C1c1ccccc1Cl
no (0)
COC(=O)C(=O)CC(=O)CCn1[nH]c(=O)c(Cl)c(Cl)c1=O
no (0)

// switching to the query molecule
Task: Lab log entry: O=c1ccn(CC2(CO)CCCC2)c(=O)[nH]1 — outcome as called in the assay?
Output: no (0)

* * *

Test system: 786-0
Assay: NCI tumour cell line growth inhibition, 48 h
Calls of active or inactive are those of the source. No stated cut-off is given here; in the data, active = GI50 up to about 1.1 µM and inactive = higher.
result_type: GI50

# example entries with known answers
COc1ccc(/C=C2\N=C(N3CCCC(CO)C3)NC2=O)cc1 (configuration not stated)
> 100 µM (inactive)
COc1cc2c(cc1OC)C1C3CCCCC3CCN1CC2 (configuration not stated)
88.5 µM (inactive)
CN1C(c2ccccc2)CC(=Nc2ccccc2)CC1c1ccccc1 (configuration not stated)
14.2 µM (inactive)
CC1=Cc2ccc(C)cc2C(=O)C1=O
1.85 µM (inactive)
C=CCOC(=O)CCCCCCCCCCCCCCCOC(=O)C1=C(CCC[C@@H](C)O[Si](C)(C)C(C)(C)C)NC(=O)N2[C@H](CC3(CC/C=C\[C@H](CC)O[Si](C(C)C)(C(C)C)C(C)C)OCCO3)CC[C@H]12
> 100 µM (inactive)

For each entry beneath this line, provide reported GI50.
1. Cc1c(/C=N/NC(=S)Nc2ccccc2)c(=O)n(-c2ccccc2)n1C
2. CCCCCCCCCCCCCCCCCCNc1nc(=O)n(C2CC(O)C(COP(=O)(O)OCC3OC(n4ccc(N)nc4=O)C(O)C3O)O2)cc1F (configuration not stated)

Output:
> 100 µM (inactive)
8.34 µM (inactive)

* * *

Test system: OVCAR-8
Assay: NCI tumour cell line growth inhibition, 48 h
Active and inactive are the calls of the source. Rule as the data show it: active = GI50 up to about 1.1 µM and inactive = higher.
Please respond with reported GI50 for every item in the list.

Cc1ccc(S(=O)(=O)N/N=C/C2(c3ccccc3)c3ccccc3-c3ccccc32)cc1
8.97 µM (inactive)
CC1(C)CC[C@]2(C(=O)O)CC[C@]3(C)C(=CC[C@@H]4[C@@]5(C)CC[C@H](OC6OC(CO)C(O)C(O)C6OC6OC(CO)C(O)C(O)C6O)C(C)(C)[C@@H]5CC[C@]43C)[C@@H]2C1 (stereo partly drawn)
19.4 µM (inactive)
O=C1C(=O)N(c2ccc(Cl)cc2)C(=O)C(=O)C1c1nc2ccccc2o1
> 100 µM (inactive)

Consider the following items and state reported GI50 for each.
1. CC(C)c1cc2c(O)c(c1)Cc1cc(C(C)C)cc(c1O)Cc1cc(C(C)C)cc(c1O)Cc1cc(C(C)C)cc(c1O)Cc1cc(C(C)C)cc(c1O)Cc1cc(C(C)C)cc(c1O)C2
2. C=CCn1c(-c2ccc([N+](=O)[O-])cc2)cs/c1=N\C(P(=O)(O)O)P(=O)(O)O
3. O=C(CSc1nc2ccc(I)cc2c(=O)n1Cc1ccccc1)N/N=C/c1ccccc1
4. CNC1C(O)C(OC2C(N)CC(N)C(OC3OC(C(C)O)C(O)C(O)C3N)C2O)OCC1(C)O (stereo not drawn)
5. CC(C)=NNc1cnnc2ccc([N+](=O)[O-])cc12

Output:
1: > 100 µM (inactive); 2: > 100 µM (inactive); 3: 17.9 µM (inactive); 4: > 100 µM (inactive); 5: > 100 µM (inactive)
